Please provide measured growth inhibition for the entries that follow.
- Assay Text: NCI Yeast Anticancer Drug Screen. Data for the sgs1 mgt1 strain (AID 161);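 further: 0% = growth of cultures given vehicle only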
- Test Settings: S. cerevisiae sgs1 mgt1 strain, hits give high values; at 50.0 µM unless noted
Compounds without any hit were thinned out: in the full panel of roughly 79,000, 15% have a hit.
The reply should contain only the number, in %.

Notebook: O=C1C=C(C2=CC(=O)c3cccc(O)c3C2=O)C(=O)c2c(O)cccc21 , growth inhibition read as -9.9

Per the record, Nn1c(-c2ccccc2)nc2ccc(Br)cc2c1=O has growth inhibition of 18.5

Reported growth inhibition ( CCC(C)C(NC(=O)Cc1ccccc1)C(=O)O (stereo unspecified) ) = -4.1

The molecule identified as Clc1cc2cc3cccc[n+]3cc2cc1Cl registered its growth inhibition at 26.2

Entry Clc1ccc(N=Nc2nc3ccccc3nc2N=Nc2ccc(Cl)cc2Cl)c(Cl)c1 — recorded growth inhibition = -13.2

Query COC(=O)c1cc(OCC#CC#CCOc2ccc(O)c(C(=O)OC)c2)ccc1O yields growth inhibition of 9.65

Kindly note the recorded growth inhibition for CCN(CC)OC(=O)/C=C/c1ccccc1 , which is -10.3

For reference, reported growth inhibition for O=[N+]([O-])c1ccc(CC(Cl)c2ccccc2)cc1 (stereo unspecified) stands at 39.5

What the record says about COc1ccc(C2=N/C(=C\c3ccccc3)C(=O)O2)cc1 : growth inhibition is 28.4

Entry CCOc1ccc(N=Nc2c(O)n(-c3ccc(Cl)cc3)c(=S)n(-c3ccccc3)c2=O)cc1 — recorded growth inhibition = 7.85

So for CC(C)NS(=O)(=O)OCC(O)(CC(Cl)(Cl)Cl)c1ccccc1 (stereo unspecified) , the logged growth inhibition turned out to be 16.9
